# subject-of-test: μ-opioid receptor (Rattus norvegicus, UniProt P33535)
# Construct: the forebrains are homogenized in Tris buffer in a Teflon®-glass homogenizer; from tissue; host or cells: forebrain of male Wistar rats (particulate membrane preparation)
# Sequence (P33535 whole entry): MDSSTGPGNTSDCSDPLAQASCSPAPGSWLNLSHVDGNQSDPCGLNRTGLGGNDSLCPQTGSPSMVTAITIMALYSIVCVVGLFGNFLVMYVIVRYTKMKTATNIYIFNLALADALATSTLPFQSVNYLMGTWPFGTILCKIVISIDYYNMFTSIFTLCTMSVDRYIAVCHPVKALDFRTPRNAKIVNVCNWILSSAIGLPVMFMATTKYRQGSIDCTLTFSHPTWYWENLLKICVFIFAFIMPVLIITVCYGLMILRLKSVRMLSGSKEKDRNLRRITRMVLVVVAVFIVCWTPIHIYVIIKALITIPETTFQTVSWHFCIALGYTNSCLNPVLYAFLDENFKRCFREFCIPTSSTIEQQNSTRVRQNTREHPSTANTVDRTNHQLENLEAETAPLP
# method: Rat brain μ-opioid receptor binding assay ([3H]DAMGO)
# condition-info: 10 nM solutions of the compounds, read-out: MOR binding Ki
Each record here notes measured pKi.
The value called pKi is obtained by taking minus log10 of the concentration in mol/L.

As a guide, the following entries are already answered.
>>> readout_number("CCNC(=O)c1ccc(C(=C2CC3CCC(C2)N3Cc2ccsc2)c2ccc3c(c2)OCO3)cc1")
8.52
>>> readout_number("CCNC(=O)c1ccc(C=C2CC3CCC(C2)N3Cc2ccc3ccccc3n2)cc1")
6.27
>>> readout_number("CCNC(=O)c1ccc(C=C2CC3CCC(C2)N3Cc2ncc[nH]2)cc1")
6.41

What value of measured pKi is listed for CCNC(=O)c1ccc(C(=C2CC3CCC(C2)N3CC=C(C)C)c2cccc(C(=O)O)c2)cc1 (single isomer, unassigned) [Cpd 44] ?
7.23

What value of measured pKi is listed for `CCNC(=O)c1ccc(C(=C2CC3CCC(C2)N3CC=C(C)C)c2ccc(CO)cc2)cc1` ?
8.44

What value of measured pKi is listed for `CCNC(=O)c1ccc(C(=C2CC3CCC(C2)N3Cc2ccco2)c2ccc([N+](=O)[O-])cc2)cc1` ?
7.47

What value of measured pKi is listed for `CCNC(=O)c1ccc(C=C2CC3CCC(C2)N3Cc2cccs2)cc1` ?
7.15

What value of measured pKi is listed for `CCNC(=O)c1ccc(C(=C2CC3CCC(C2)N3CC=C(C)C)c2nnn[nH]2)cc1` ?
6.96

---

# subject-of-test: μ-opioid receptor (Rattus norvegicus, UniProt P33535)
# Construct: the forebrains are homogenized in Tris buffer in a Teflon®-glass homogenizer; from tissue; host or cells: forebrain of male Wistar rats (particulate membrane preparation)
# method: Rat brain μ-opioid receptor binding assay ([3H]DAMGO)
# condition-info: MOR binding Ki
measure: Ki (nM)
Write the number in nM without appending the unit.

As a guide, the following entries are already answered.
>>> readout_number("CCNC(=O)c1ccc(C(=C2CC3CCC(C2)N3Cc2ccoc2)c2cccc(CN)c2)cc1")
71.1
>>> readout_number("CCNC(=O)c1ccc(C(=C2CC3CCC(C2)N3Cc2ccco2)c2ccc3c(c2)OCO3)cc1")
7.41
>>> readout_number("CCNC(=O)c1ccc(C(Br)=C2CC3CCC(C2)N3Cc2ccoc2)cc1 (single isomer, unassigned) [Cpd 212]")
38.5
>>> readout_number("CCNC(=O)c1ccc(C(=C2CC3CCC(C2)N3Cc2ccccn2)c2cccc(-c3nnn[nH]3)c2)cc1")
54.1
>>> readout_number("CCNC(=O)c1ccc(C(=C2CC3CCC(C2)N3Cc2ccoc2)c2ccc(S(N)(=O)=O)cc2)cc1")
49.5

What value of measured Ki is listed for `CCNC(=O)c1ccc(C(=C2CC3CCC(C2)N3Cc2ccc3ccccc3n2)c2cncnc2)cc1` ?
113

What value of measured Ki is listed for `CCNC(=O)c1ccc(C(=C2CC3CCC(C2)N3Cc2ccc3ccccc3n2)c2cccc(C#N)c2)cc1` ?
129

What value of measured Ki is listed for `CCNC(=O)c1ccc(C(=C2CC3CCC(C2)N3Cc2ccco2)c2ccc(CO)cc2)cc1` ?
18.6

---

Each record here notes measured Ki.
# subject-of-test: μ-opioid receptor (Rattus norvegicus, UniProt P33535)
# Construct: the forebrains are homogenized in Tris buffer in a Teflon®-glass homogenizer; from tissue; host or cells: forebrain of male Wistar rats (particulate membrane preparation)
# method: Rat brain μ-opioid receptor binding assay ([3H]DAMGO)
# condition-info: MOR binding Ki
Write the number in µM without appending the unit.

As a guide, the following entries are already answered.
>>> readout_number("CCNC(=O)c1ccc(C=C2CC3CCC(C2)N3CC#Cc2ccccc2)cc1")
0.0316
>>> readout_number("CCNC(=O)c1ccc(C(=C2CC3CCC(C2)N3Cc2nccs2)c2ccc([N+](=O)[O-])cc2)cc1")
0.221
>>> readout_number("CCNC(=O)c1ccc(C(Br)=C2CC3CCC(C2)N3Cc2ncc[nH]2)cc1")
0.0585

What value of measured Ki is listed for `CCNC(=O)c1ccc(C=C2CC3CCC(C2)N3Cc2ccccn2)cc1` ?
1.5

What value of measured Ki is listed for `CCN(CC)C(=O)c1ccc(C(=C2CC3CCC(C2)N3C(=N)N)c2ccccc2)cc1` ?
10

What value of measured Ki is listed for `CCN(CC)C(=O)c1ccc(C(Br)=C2CC3CCC(C2)N3)cc1` ?
100

What value of measured Ki is listed for `CCNC(=O)c1ccc(C(=C2CC3CCC(C2)N3Cc2nccs2)c2cccc(C(=O)O)c2)cc1` ?
1.32

What value of measured Ki is listed for `CCNC(=O)c1ccc(C(=C2CC3CCC(C2)N3Cc2ccc3ccccc3n2)c2cccc(C(=O)O)c2)cc1` ?
0.537

---

# subject-of-test: μ-opioid receptor (Rattus norvegicus)
# Construct: the forebrains are homogenized in Tris buffer in a Teflon®-glass homogenizer; from tissue; host or cells: forebrain of male Wistar rats (particulate membrane preparation)
# method: Rat brain μ-opioid receptor binding assay ([3H]DAMGO)
# condition-info: MOR binding Ki
measure: Ki (nM)
Write the number in nM without appending the unit.

>>> readout_number("CCNC(=O)c1ccc(C(=C2CC3CCC(C2)N3Cc2ccco2)c2cc(N)cc(C(=O)O)c2)cc1")
10000

What value of measured Ki is listed for `CCNC(=O)c1ccc(C(=C2CC3CCC(C2)N3Cc2nccs2)c2nnn[nH]2)cc1` ?
73.8

What value of measured Ki is listed for `CCNC(=O)c1ccc(C=C2CC3CCC(C2)N3Cc2ccco2)cc1` ?
1420

What value of measured Ki is listed for `CCNC(=O)c1ccc(C(=C2CC3CCC(C2)N3CCc2ccccc2)c2cc(N)cc(C(=O)O)c2)cc1` ?
1510

What value of measured Ki is listed for `CCNC(=O)c1ccc(C(=C2CC3CCC(C2)N3Cc2csc([N+](=O)[O-])c2)c2cccnc2)cc1` ?
37.5

What value of measured Ki is listed for `CNC(=O)c1ccc(C=C2CC3CCC(C2)N3)cc1` ?
10600

---

# subject-of-test: μ-opioid receptor (Rattus norvegicus, UniProt P33535)
# Construct: the forebrains are homogenized in Tris buffer in a Teflon®-glass homogenizer; from tissue; host or cells: forebrain of male Wistar rats (particulate membrane preparation)
# method: Rat brain μ-opioid receptor binding assay ([3H]DAMGO)
# condition-info: MOR binding Ki
Each record here notes measured Ki.
Write the number in nM without appending the unit.

>>> readout_number("CCNC(=O)c1ccc(C(=C2CC3CCC(C2)N3Cc2cccs2)c2cc(N)cc(C(=O)O)c2)cc1")
5360
>>> readout_number("CCNC(=O)c1ccc(C(=C2CC3CCC(C2)N3Cc2nccs2)c2cc(N)cc(C(=O)O)c2)cc1")
10000
>>> readout_number("CCNC(=O)c1ccc(C(=C2CC3CCC(C2)N3Cc2cccs2)c2cnc3ccccc3c2)cc1")
30.8
>>> readout_number("CCNC(=O)c1ccc(C(=C2CC3CCC(C2)N3Cc2ccc(NC(C)=O)cc2)c2cnc3ccccc3c2)cc1")
959
>>> readout_number("CCNC(=O)c1ccc(C(=C2CC3CCC(C2)N3Cc2ccoc2)c2ccc(C(=O)O)cc2)cc1")
11.9
>>> readout_number("CCNC(=O)c1ccc(C(=C2CC3CCC(C2)N3Cc2ccsc2)c2ccc(C(N)=O)cc2)cc1")
22.1
>>> readout_number("CCNC(=O)c1ccc(C(=C2CC3CCC(C2)N3Cc2ccsc2)c2ccc(NS(C)(=O)=O)cc2)cc1")
0.717
>>> readout_number("CCNC(=O)c1ccc(C(=C2CC3CCC(C2)N3CCN2CCN(C(=O)OC)CC2)c2ccccc2)cc1")
175

What value of measured Ki is listed for `CCNC(=O)c1ccc(C(Br)=C2CC3CCC(C2)N3Cc2[nH]cnc2C)cc1` ?
99.8

What value of measured Ki is listed for `CCNC(=O)c1ccc(C=C2CC3CCC(C2)N3Cc2ccsc2)cc1` ?
198

What value of measured Ki is listed for `CCNC(=O)c1ccc(C(=C2CC3CCC(C2)N3Cc2ccc(NC(C)=O)cc2)c2cccc(C(=O)O)c2)cc1` ?
5660

What value of measured Ki is listed for `CCNC(=O)c1ccc(C(=C2CC3CCC(C2)N3Cc2ccoc2)c2cccc(CO)c2)cc1` ?
0.81

What value of measured Ki is listed for CCNC(=O)c1ccc(C(Br)=C2C[C@H]3CC[C@@H](C2)N3)cc1 (single isomer, unassigned) ?
115

What value of measured Ki is listed for `CCNC(=O)c1ccc(C(=C2CC3CCC(C2)N3Cc2ccsc2)c2ccc(C(=O)O)cc2)cc1` ?
10.7

What value of measured Ki is listed for `CCNC(=O)c1ccc(C(=C2CC3CCC(C2)N3Cc2nccs2)c2cccc(CN)c2)cc1` ?
7230

What value of measured Ki is listed for `CCNC(=O)c1ccc(C(=C2CC3CCC(C2)N3CC=C(C)C)c2cccc(-c3nnn[nH]3)c2)cc1` ?
49.3
